Origin of values: the supplement of paper PMC5579334

drug sensitivity score reference
System: HSC1 (primary human Schwann cells)
Assay overview: drug sensitivity score (DSS, CellTiter-Glo viability, 72 h) (DSS (dimensionless)); higher = more sensitive; extreme values may be limits of the assay
// no unit string in output, number only

Req: Check HSC1 (primary human Schwann cells) data and give drug sensitivity score for COCC1(CO)C(=O)C2CCN1CC2 (stereo unspecified) [Prima-1 Met] (max concentration tested 10000 nM) .
Resp: 1.87

Req: Report value only: drug sensitivity score, HSC1 (primary human Schwann cells), CC(=O)O[C@H]1C(=O)[C@@]2(C)[C@H]([C@H](OC(=O)c3ccccc3)[C@]3(O)C[C@H](OC(=O)[C@H](O)[C@@H](NC(=O)c4ccccc4)c4ccccc4)C(C)=C1C3(C)C)[C@]1(OC(C)=O)CO[C@@H]1C[C@@H]2O [Paclitaxel] (max concentration tested 1000 nM)
Resp: 18

Req: Write down the reported drug sensitivity score (system: HSC1 (primary human Schwann cells)) of CCCCCCCCc1ccc(CCC(N)(CO)CO)cc1 [Fingolimod] (max concentration tested 10000 nM)
Resp: 7.62

Req: Provide drug sensitivity score, tested on HSC1 (primary human Schwann cells), for CCN(CC)CCNC(=O)c1c(C)[nH]c(/C=C2\C(=O)Nc3ccc(F)cc32)c1C [Sunitinib] (max concentration tested 1000 nM) .
Resp: 0

Req: Provide drug sensitivity score, recorded with HSC1 (primary human Schwann cells), of Nc1nc(F)nc2c1ncn2[C@@H]1O[C@H](CO)[C@@H](O)[C@@H]1O [Fludarabine] (max concentration tested 10000 nM)
Resp: 0.98

Req: Please tell me the measured drug sensitivity score for CC(=O)OC[C@H]1O[C@@H]([S-])[C@H](OC(C)=O)[C@@H](OC(C)=O)[C@@H]1OC(C)=O.CCP(CC)CC.[Au+] [Auranofin] (max concentration tested 2500 nM) ; system: HSC1 (primary human Schwann cells).
Resp: 8.86

Req: State the measured drug sensitivity score (HSC1 (primary human Schwann cells)) of Nc1nc(Cl)nc2c1ncn2[C@H]1C[C@H](O)[C@@H](CO)O1 [Cladribine] (max concentration tested 1000 nM)
Resp: 5.81
